# Target desc: Neprilysin (NEP), purified from rabbit kidney (Oryctolagus cuniculus)
# Construct: Neprilysin, purified from rabbit kidney; from tissue; host or cells: rabbit kidney
# Sequence (P08049 whole entry): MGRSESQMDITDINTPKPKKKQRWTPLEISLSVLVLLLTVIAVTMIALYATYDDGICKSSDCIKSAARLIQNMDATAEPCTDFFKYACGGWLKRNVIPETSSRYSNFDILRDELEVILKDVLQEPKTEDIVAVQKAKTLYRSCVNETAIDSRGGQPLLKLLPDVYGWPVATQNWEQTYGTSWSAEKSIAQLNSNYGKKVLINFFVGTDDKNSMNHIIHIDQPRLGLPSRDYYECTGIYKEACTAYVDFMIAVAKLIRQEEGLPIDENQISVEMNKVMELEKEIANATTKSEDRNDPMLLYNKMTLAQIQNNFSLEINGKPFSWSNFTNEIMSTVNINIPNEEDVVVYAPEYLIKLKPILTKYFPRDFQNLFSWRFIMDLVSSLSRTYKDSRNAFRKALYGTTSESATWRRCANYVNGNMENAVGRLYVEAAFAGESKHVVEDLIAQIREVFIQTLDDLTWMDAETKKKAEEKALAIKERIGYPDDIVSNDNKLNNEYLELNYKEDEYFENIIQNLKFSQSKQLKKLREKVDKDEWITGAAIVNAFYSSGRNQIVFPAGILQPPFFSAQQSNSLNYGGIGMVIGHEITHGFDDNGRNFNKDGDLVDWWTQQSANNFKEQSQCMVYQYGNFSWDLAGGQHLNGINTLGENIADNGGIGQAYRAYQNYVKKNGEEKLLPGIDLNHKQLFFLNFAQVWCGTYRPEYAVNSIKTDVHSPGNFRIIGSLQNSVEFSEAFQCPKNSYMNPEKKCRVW
# Experimental protocol: Neprilysin (NEP) assay, fluorigenic substrate Dansyl-Gly-(NO2)Phe-β-Ala
# Type: biochemical
# Measurement parameters: rabbit kidney NEP 200 ng/mL, substrate 20 μM, 50 mM Tris pH 7.4, 37° C.; read-out: NEP (nM), inhibitory power Ki
Parameter measured: Ki (nM)
Answer format: numeric, nM implied, no suffix.

Find the measured Ki of O=CN(O)C[C@@H](Cc1ccccc1)C(=O)N[C@H](CC(=O)O)Cc1ccccc1 and report it. 6.3

Find the measured Ki of O=CN(O)C[C@@H](Cc1ccccc1)C(=O)N[C@@H](Cc1ccccc1)C(=O)O and report it. 0.5

Find the measured Ki of C[C@H](NC(=O)[C@@H](Cc1ccc(-c2ccccc2)cc1)CN(O)C=O)C(=O)O and report it. 44.1

Find the measured Ki of O=CN(O)C[C@H](Cc1ccccc1)C(=O)N[C@@H](Cc1ccccc1)C(=O)O and report it. 23.1

Find the measured Ki of C[C@H](NC(=O)[C@H](Cc1ccccc1)CN(O)C=O)C(=O)O and report it. 3.3

Find the measured Ki of C[C@H](NC(=O)[C@@H](Cc1ccccc1)CN(O)C=O)C(=O)O and report it. 17.7

Find the measured Ki of C[C@H](NC(=O)[C@H](Cc1ccc(-c2ccccc2)cc1)CN(O)C=O)C(=O)O and report it. 0.08
